Target: T1, human GPC3-his tag protein (human, UniProt P51654 25-559, limits assumed)
T1 construct: recombinant soluble antigen used as analyte in all Biacore runs; also called recombinant GPC3 protein; rhGPC3-His; not shown: His tag
Assay: SPR Biacore 8K, mAb captured, one or two doses GPC3-his
test.readout: pKd
Numbers only, as −log10 of the molar value.

QUERY: Given the entry 52H5D3B8-13# chimeric mAb (antibody, V domains shown, CDR3 mutant of the 52H5D3B8 chimeric mAb (human IgG1)) VH: QVQLQQSGAELVRPGASVKLSCKALGYTFTDYEMHWVKQTPVHGLEWIGAIHPGSGGTAYNQKFKGKATLTADKFSSTGYMELSSLTSEDSAVYYCTRYYSFAYWGQGTLVTVSA VL: DVVMTQTPLSLPVSLGDQASISCRSSQSLVHSNGNTYLQWYLQKPGQSPKLLIYKVSNRFSGVPDRFSGSGSGTDFILKISRVEAEDLGVYFCSQSTHVPYTFGGGTKLEIK , report its measured pKd.
RESULT: 7.54

***
QUERY: Given the entry 52H5D3B8-14# chimeric mAb (antibody, V domains shown, CDR3 mutant of the 52H5D3B8 chimeric mAb (human IgG1)) VH: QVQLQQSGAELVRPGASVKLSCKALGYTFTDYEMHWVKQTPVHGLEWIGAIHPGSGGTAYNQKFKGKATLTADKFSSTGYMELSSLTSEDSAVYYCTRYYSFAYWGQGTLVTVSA VL: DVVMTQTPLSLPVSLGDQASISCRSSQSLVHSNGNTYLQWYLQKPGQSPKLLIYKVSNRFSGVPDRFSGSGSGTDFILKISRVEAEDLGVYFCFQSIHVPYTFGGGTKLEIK , report its measured pKd.
RESULT: 8.82
